target: PI3Kalpha (Homo sapiens (Human), UniProt P42336); test: Inhibition of PI3Kalpha-induced PIP-2 phosphorylation (filter-binding assay); details: 33P-ATP, p85alpha/His-p110alpha, read-out: IC50 PI3Kα
Sequence (P42336 whole entry): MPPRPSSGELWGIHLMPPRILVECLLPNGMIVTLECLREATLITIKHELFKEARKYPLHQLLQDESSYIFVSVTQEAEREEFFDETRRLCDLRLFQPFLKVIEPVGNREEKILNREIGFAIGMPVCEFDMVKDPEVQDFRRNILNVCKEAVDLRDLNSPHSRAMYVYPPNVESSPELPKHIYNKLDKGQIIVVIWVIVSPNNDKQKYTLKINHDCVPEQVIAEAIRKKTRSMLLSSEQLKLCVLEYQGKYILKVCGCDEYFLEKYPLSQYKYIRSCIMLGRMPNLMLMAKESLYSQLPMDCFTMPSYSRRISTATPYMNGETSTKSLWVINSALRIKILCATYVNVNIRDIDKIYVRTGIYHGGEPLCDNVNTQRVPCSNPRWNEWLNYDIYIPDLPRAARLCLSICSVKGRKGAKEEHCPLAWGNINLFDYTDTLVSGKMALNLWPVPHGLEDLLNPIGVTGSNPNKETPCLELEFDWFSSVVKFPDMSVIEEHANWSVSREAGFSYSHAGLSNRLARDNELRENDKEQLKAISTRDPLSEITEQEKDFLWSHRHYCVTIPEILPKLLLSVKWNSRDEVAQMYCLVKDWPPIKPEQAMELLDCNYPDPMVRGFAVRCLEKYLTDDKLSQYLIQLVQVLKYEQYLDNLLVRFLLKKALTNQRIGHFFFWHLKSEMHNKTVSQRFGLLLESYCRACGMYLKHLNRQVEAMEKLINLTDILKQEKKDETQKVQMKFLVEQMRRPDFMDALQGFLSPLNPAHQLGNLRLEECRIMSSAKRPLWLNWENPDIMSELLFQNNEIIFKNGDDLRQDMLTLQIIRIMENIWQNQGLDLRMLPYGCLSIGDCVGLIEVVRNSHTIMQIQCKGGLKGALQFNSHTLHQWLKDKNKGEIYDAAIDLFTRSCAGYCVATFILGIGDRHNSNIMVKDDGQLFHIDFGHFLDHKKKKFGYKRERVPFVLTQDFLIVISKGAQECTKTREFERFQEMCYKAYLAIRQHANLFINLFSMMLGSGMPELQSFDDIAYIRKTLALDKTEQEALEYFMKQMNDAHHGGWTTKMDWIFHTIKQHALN
observed-property: IC50 (nM)
One number for each entry, in nM.

Consider the reported IC50 for these compounds:
Could you share what IC50 was measured for `Cc1ncc(C#Cc2c(C)ncnc2N2CCN(C)C(=O)C2)cc1NS(=O)(=O)c1ccccc1` , tested on PI3Kalpha (Homo sapiens (Human), UniProt P42336)?
2

Try `COc1ncc(C#Cc2c(C)ncnc2N2CCOCC2)cc1NS(=O)(=O)c1ccnn1C` next.
0.45

Try `Cc1ncc(C#Cc2c(C)ncnc2N2CCOCC2)cc1NS(=O)(=O)c1ccccc1Br` next.
1

Try `Cc1ncc(C#Cc2c(C)ncnc2N(C)C(C)C)cc1NS(=O)(=O)c1ccc(F)cc1F` next.
0.74

Try `COCCN1CCN(c2ncnc(C)c2C#Cc2cnc(C)c(NS(=O)(=O)c3ccccc3)c2)CC1` next.
0.83

Would you mind giving IC50 for every compound in the list below?
1. CCc1ncnc(N(C)C)c1C#Cc1cnc(C)c(NS(=O)(=O)c2ccc(F)cc2)c1
2. Cc1ncc(C#Cc2c(C)ncnc2N2CCOCC2)cc1NS(C)(=O)=O

1: 1; 2: 1

====

molecular target: PI3Kalpha (Homo sapiens (Human), UniProt P42336); test: Inhibition of PI3Kalpha-induced PIP-2 phosphorylation (filter-binding assay); settings: 33P-ATP, p85alpha/His-p110alpha, read-out: IC50 PI3Kα
pIC50: −log10 of the molar value.
Label label 0 if pIC50 falls below 9; label label 1 in every other case.

Decide: pIC50 of `COc1ncc(C#Cc2c(C)ncnc2N2CCOCC2)cc1NS(=O)(=O)c1ccccc1` >= 9?
label 1

Try `Cc1ncc(C#Cc2c(C)ncnc2N2CCOCC2)cc1NS(=O)(=O)c1ccc(F)cc1F` next.
label 1

Try `CCc1nc(N)nc(N2CCCCC2)c1C#Cc1cnc(C)c(NS(C)(=O)=O)c1` next.
label 0

Try `Cc1ncc(C#Cc2c(C)ncnc2N2CCOC[C@H]2C)cc1NS(=O)(=O)c1ccccc1` next.
label 0

Try `CCc1ncnc(NC)c1C#Cc1cnc(C)c(NS(C)(=O)=O)c1` next.
label 0

Try `CCc1ncnc(N2CCN(C3CC3)CC2)c1C#Cc1cnc(C)c(NS(=O)(=O)c2ccc(F)cc2)c1` next.
label 0

Try `Cc1ncc(C#Cc2c(C)ncnc2N2CCOCC2)cc1NS(=O)(=O)c1ccc(Cl)s1` next.
label 1

Try `COc1ncc(C#Cc2c(C)ncnc2N2CCOCC2)cc1NS(=O)(=O)c1ccccc1OC(F)(F)F` next.
label 1

Try `COc1ncc(C#Cc2c(C)ncnc2N2CCOCC2)cc1NS(=O)(=O)c1ccc(F)cc1F` next.
label 1

====

system: MB453 cells; test: alamarBlue MB453 cell assay (antiproliferative/cytotoxicity); type: cell-based; details: Homo sapiens; MDA MB 453 breast cancer cell line
observed-property: log10 EC50 (log10 of the value in nM)
Values reflect log10 of reported EC50 (nM).

Consider the reported log10 EC50 for these molecules:
Fill blank: measured log10 EC50 of the molecule Cc1ncc(C#Cc2c(C)ncnc2N2CCOCC2)cc1NS(=O)(=O)c1cc(F)cc(F)c1 [Example I-31] is ____.
2.39

Try Cc1ncc(C#Cc2c(C)ncnc2NC(C)C)cc1NS(=O)(=O)c1ccccc1 [Example I-59] next.
3.29

Try COc1ncc(C#Cc2c(C)ncnc2N2CCOCC2)cc1NS(=O)(=O)c1cnn(C)c1 [Example I-88] next.
0.90

Would you mind giving log10 EC50 for every molecule in the list below?
1. COc1ncc(C#Cc2c(C)ncnc2N2CCOCC2)cc1NS(=O)(=O)c1ccccc1OC(F)(F)F [Example I-82]
2. Cc1ncc(C#Cc2c(C)ncnc2N2CCOCC2)cc1NS(=O)(=O)N1CCCC1 [Example I-64]

1: 1.43; 2: 2.77

Fill blank: measured log10 EC50 of the molecule Cc1ncnc(N2CCOCC2)c1C#Cc1cncc(NS(=O)(=O)c2cccnc2)c1 [Example I-22] is ____.
3.15
